Origin of measurements: paper PMC7059030

Record form. Attribute: pEC50. Fill in for each entry.
Tested on: HCV (JFH-1 strain) in Huh7.5 cells
method: Cell-based HCV replicon assay (RT-qPCR of HCV RNA in infected Huh7.5 cells)
Set-up: species or system hepatitis C virus
setupConditions: Hepatitis C virus, Huh7.5, 72 h, Huh7.5 cells infected with HCV (JFH-1), three days, HCV RNA by quantitative RT-PCR; read-out: EC50
One number for each entry, as −log10 of the molar value.

Some solved entries appear below for comparison.
INSERT INTO measurements (compound, property, observed) VALUES
  ('Cc1ccccc1C=NNC(=O)c1c[nH]c2ccc(OCc3ccccc3)cc2c1=O [Compound 23]', 'pEC50', 4.15),
  ('Cc1cccc(C=NNC(=O)c2c[nH]c3ccc(OCc4ccccc4)cc3c2=O)c1 [Compound 22]', 'pEC50', 4.35),
  ('CC(C)OC(=O)[C@H](C)N[P@](=O)(OC[C@H]1O[C@@H](n2ccc(=O)[nH]c2=O)[C@](C)(F)[C@@H]1O)Oc1ccccc1 [Sofosbuvir, sofosbuvir, reference compound]', 'pEC50', 5.30),
  ('O=C(NN=Cc1cccc(Cl)c1)c1c[nH]c2ccc(OCc3ccccc3)cc2c1=O [Compound 21]', 'pEC50', 4.46);

Now consider the entry below.
// query pEC50 value for entry COc1cccc(C=NNC(=O)c2c[nH]c3ccc(OCc4ccccc4)cc3c2=O)c1 [Compound 24]
3.92
